Assay: Tmax in humanized mouse at 50 mg/kg, sc for 8 days measured on day 8 post last dose by LC-MS/MS analysis
Type: ADME, organism-based
Settings: in vivo

{"INPUT_SMILES": "Cc1cc(NC(=O)c2cccc(S(=O)(=O)N[C@H]3CCOC3)c2)ccc1F", "READOUT_UNITS": "min", "Tmax": 48}

* * *

Target: UniProtKB P08684
Sequence (P08684 whole entry): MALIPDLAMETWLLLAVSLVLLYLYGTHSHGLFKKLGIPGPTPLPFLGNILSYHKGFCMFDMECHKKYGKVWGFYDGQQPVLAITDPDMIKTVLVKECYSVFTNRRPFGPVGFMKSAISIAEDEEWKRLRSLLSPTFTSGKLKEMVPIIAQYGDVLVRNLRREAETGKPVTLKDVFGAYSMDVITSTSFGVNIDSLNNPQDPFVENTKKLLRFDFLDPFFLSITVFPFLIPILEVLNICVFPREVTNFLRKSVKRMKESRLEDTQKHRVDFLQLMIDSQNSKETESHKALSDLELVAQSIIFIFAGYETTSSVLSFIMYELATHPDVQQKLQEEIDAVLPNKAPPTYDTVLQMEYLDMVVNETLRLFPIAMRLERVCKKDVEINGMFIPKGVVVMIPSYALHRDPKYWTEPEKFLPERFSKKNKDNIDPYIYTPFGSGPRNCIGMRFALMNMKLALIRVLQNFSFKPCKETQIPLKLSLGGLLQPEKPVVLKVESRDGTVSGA

{"INPUT_SMILES": "Cc1cc(NC(=O)c2cccc(S(=O)(=O)N[C@H]3CCOC3)c2)ccc1F", "IC50": "> 10 µM"}

* * *

Experiment: Kinetic solubility of the compound at pH 7.4 after 4 hrs by UPLC-UV analysis
Type: physicochemical
Conditions: buffer, read-out: Kinetic_solubility
PROPERTY_NAME: solubility kinetic at 4 h

{"INPUT_SMILES": "Cc1c(NC(=O)c2cccc(S(=O)(=O)N[C@H]3CCOC3)c2)ccc(F)c1F", "REPORTED": "> 100 µM"}
{"INPUT_SMILES": "O=C(Nc1ccc(F)cc1)c1cccc(S(=O)(=O)N[C@H]2CCOC2)c1", "REPORTED": "> 100 µM"}
{"INPUT_SMILES": "Cc1cc(NC(=O)c2cccc(S(=O)(=O)NC3(C)COC3)c2)ccc1F", "REPORTED": "> 100 µM"}
{"INPUT_SMILES": "CC(C)NS(=O)(=O)c1cccc(C(=O)Nc2ccc(F)c(F)c2)c1", "REPORTED": "> 100 µM"}
{"INPUT_SMILES": "O=C(Nc1cccc(S(=O)(=O)NC2CCCCC2)c1)c1ccc(F)cc1", "REPORTED": "22 µM"}
